Target: UniProt P02452
Sequence (P02452 whole entry): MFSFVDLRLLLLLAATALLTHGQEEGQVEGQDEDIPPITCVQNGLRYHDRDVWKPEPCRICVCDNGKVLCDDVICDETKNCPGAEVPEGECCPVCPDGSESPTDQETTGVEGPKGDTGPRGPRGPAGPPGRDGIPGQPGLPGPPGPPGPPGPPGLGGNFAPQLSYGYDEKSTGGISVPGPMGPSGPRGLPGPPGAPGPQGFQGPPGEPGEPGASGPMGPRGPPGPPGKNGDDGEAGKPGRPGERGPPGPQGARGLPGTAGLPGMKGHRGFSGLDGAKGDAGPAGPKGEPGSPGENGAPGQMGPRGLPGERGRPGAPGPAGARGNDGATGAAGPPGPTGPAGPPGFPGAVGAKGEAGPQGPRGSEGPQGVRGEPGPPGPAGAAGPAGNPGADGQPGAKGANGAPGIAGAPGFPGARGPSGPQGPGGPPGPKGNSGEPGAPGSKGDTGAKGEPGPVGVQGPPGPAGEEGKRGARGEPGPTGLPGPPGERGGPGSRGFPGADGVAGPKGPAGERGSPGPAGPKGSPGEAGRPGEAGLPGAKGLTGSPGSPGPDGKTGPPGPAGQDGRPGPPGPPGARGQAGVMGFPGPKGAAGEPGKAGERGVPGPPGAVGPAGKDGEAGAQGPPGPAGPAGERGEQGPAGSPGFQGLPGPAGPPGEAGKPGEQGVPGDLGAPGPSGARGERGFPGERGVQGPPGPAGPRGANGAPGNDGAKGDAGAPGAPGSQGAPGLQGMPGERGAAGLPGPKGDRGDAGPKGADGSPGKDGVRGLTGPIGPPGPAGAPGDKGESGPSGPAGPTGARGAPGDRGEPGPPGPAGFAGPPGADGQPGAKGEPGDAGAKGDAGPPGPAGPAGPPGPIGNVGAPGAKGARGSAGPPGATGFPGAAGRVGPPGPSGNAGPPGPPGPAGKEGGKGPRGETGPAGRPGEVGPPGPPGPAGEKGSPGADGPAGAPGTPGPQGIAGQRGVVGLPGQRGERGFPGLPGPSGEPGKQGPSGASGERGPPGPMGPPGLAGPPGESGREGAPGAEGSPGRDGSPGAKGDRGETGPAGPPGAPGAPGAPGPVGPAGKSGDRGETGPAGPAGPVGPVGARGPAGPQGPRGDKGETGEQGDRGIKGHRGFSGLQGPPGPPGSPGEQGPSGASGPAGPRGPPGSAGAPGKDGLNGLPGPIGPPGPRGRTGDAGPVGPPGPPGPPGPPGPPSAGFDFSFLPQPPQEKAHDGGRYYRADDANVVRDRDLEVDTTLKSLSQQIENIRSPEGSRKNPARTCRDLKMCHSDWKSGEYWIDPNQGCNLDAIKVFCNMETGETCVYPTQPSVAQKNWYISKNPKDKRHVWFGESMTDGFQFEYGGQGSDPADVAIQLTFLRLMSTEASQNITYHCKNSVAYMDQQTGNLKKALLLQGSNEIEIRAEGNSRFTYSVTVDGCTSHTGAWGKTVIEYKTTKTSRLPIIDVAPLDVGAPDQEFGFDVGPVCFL
Experiment: Inhibition of COL1A1 (unknown origin) expressed in human LX2 cells at 40 uM measured for 24 hrs relative to control
Assay type: cell-based
Some molecules, each annotated with its measured inhibition.
Numeric answer plus unit only.

# count of solved cases: 4
>>> result("CCCC[C@@H]1[C@H]2CCCN3CCC[C@@H](CN1CC(=O)Nc1cc(C)nc(C)n1)[C@@H]23")
"14.7%"
>>> result("COC(=O)CCC[C@@H]1[C@H]2CCCN3CCC[C@@H](CN1C(=O)Nc1cccc(Cl)c1)[C@@H]23")
"35.2%"
>>> result("CCCC[C@@H]1[C@H]2CCCN3CCC[C@@H](CN1CC(=O)Nc1ccc(Cl)cc1C(=O)c1ccccc1F)[C@@H]23")
"89.8%"
>>> result("CCCC[C@@H]1[C@H]2CCCN3CCC[C@@H](CN1C(=O)Nc1cccc(Cl)c1)[C@@H]23")
"69%"

Which measured inhibition value corresponds to `COC(=O)CCC[C@@H]1[C@H]2CCCN3CCC[C@@H](CN1C(=O)Nc1ccc(C(F)(F)F)cc1)[C@@H]23` ?
45.1%
